# System: blackgrass
# Test Method Notes: Test B pre/postemergence blackgrass
# Assay type: in vivo, Alopecurus myosuroides
# Experimental Conditions: Rate 62 g/ha, Postemergence; scale of 0 to 10 where 0 is no effect and 10 is complete control
Endpoint Label: Blackgrass plant response rating
# print the numeric value only

Below, each entry is followed by its recorded Blackgrass plant response rating result.
{"Compound": "CC(C)N(C(=O)n1oc(=O)n(C2CCCCCC2)c1=O)c1ccc(F)cc1", "Blackgrass plant response rating": 0}
{"Compound": "CC(C)N(C(=O)n1oc(=O)n(C2CCCC(C(F)(F)F)C2)c1=O)c1ccc(F)cc1 (centres unmarked)", "Blackgrass plant response rating": 0}
{"Compound": "CC(C)N(C(=O)n1oc(=O)n(C2(C)CC2)c1=O)c1ccc(F)cc1", "Blackgrass plant response rating": 8}
{"Compound": "CCN(Cc1ccncc1)C(=O)n1oc(=O)n(C(C)C)c1=O", "Blackgrass plant response rating": 0}
{"Compound": "Cc1ccc(N(C(=O)n2oc(=O)n(C(C)C)c2=O)C(C)C)cc1", "Blackgrass plant response rating": 0}

Name the recorded Blackgrass plant response rating for "CC(C)N(C(=O)n1oc(=O)n(C(CF)CF)c1=O)c1ccccc1" .
8

Try this compound next: "COc1nc(OC)nc(N(C(=O)n2oc(=O)n(-c3c(C)cccc3C)c2=O)C(C)C)n1"
0

How about "CC(C)N(C(=O)n1oc(=O)n(CCc2ccccc2)c1=O)c1ccc(F)cc1" ?
0

###

# Tested on: velvetleaf
# Test Method Notes: Test B pre/postemergence velvetleaf
# Format: in vivo, Abutilon theophrasti
# Experimental Conditions: Postemergence, Rate 500 g/ha; scale 0 to 10, 0 is no effect, 10 is complete control
Endpoint Label: Plant response rating, Velvetleaf
Respond with the number and no other words.

As a guide, the following entries are already answered.
{"Compound": "CC(C)C(=O)Cn1c(=O)on(C(=O)N(c2ccc(F)cc2F)C(C)C)c1=O [Compound 486]", "Plant response rating, Velvetleaf": 6}
{"Compound": "CC(C)N(C(=O)n1oc(=O)n(CCC(F)(F)F)c1=O)c1ccc(Cl)cc1 [Compound 554]", "Plant response rating, Velvetleaf": 0}
{"Compound": "COCCOCn1c(=O)on(C(=O)N(c2ccc(F)cc2F)C(C)C)c1=O [Compound 505]", "Plant response rating, Velvetleaf": 4}

Endpoint output: Plant response rating, Velvetleaf of CC(C)=CCn1c(=O)on(C(=O)N(c2ccc(F)cc2F)C(C)C)c1=O [Compound 515] . Value?
8

Note, next up: CCCCn1c(=O)on(C(=O)N(c2ccc(Cl)cc2)C(C)C)c1=O [Compound 527]
3

###

# Test system: morningglory
# Test Method Notes: Test B pre/postemergence morningglory
# Format: in vivo, Ipomoea hederacea
# Experimental Conditions: Rate 62 g/ha, Postemergence; scale of 0 to 10 where 0 is no effect and 10 is complete control
Endpoint Label: Morningglory plant response rating
Just the number, please, no unit after it.

Worked examples, 3 compounds total:
{"Compound": "CC(C)N(C(=O)n1oc(=O)n(C(CF)CF)c1=O)c1ccc(F)cc1 [Compound 390]", "Endpoint Label": "Morningglory plant response rating", "Value": 2}
{"Compound": "COc1nc(OC)nc(N(C(=O)n2oc(=O)n(-c3c(C)cccc3C)c2=O)C(C)C)n1 [Compound 180]", "Endpoint Label": "Morningglory plant response rating", "Value": 0}
{"Compound": "Cc1nc(C)c(-n2c(=O)on(C(=O)N(c3ccc(Cl)cc3)C(C)C)c2=O)s1 [Compound 196]", "Endpoint Label": "Morningglory plant response rating", "Value": 0}

Find Morningglory plant response rating (morningglory) for the entry CC(C)N(C(=O)n1oc(=O)[nH]c1=O)c1ccc(F)cc1 [Compound 164]
0

###

Below: a set of entries, each annotated with reported S. Flatsedge plant response rating.
# Test system: smallflower flatsedge
# Test Method Notes: Test B flood test smallflower flatsedge
# Type: in vivo, Cyperus difformis
# Experimental Conditions: Rate 250 g/ha; Pre-emergence; flood-test species; scale 0 to 10, 0 is no effect, 10 is complete control
# Experimental: At the same time, these crop and weed species were also treated with postemergence applications of test chemicals formulated in the same manner. Plants ranged in height from 2 to 18 cm (1- to 4-leaf stage) for postemergence treatments. […] Treated plants and controls were maintained in a greenhouse for twelve to sixteen days, after which all species were compared to controls and visually evaluated. […]
# output: bare number, no unit

{"Molecule": "C=CCn1c(=O)on(C(=O)N(c2ccc(F)cc2)C(C)C)c1=O [Compound 146]", "Endpoint Label": "S. Flatsedge plant response rating", "Value": 0}

If you can, please state the reported S. Flatsedge plant response rating value of Cc1nc(C)c(-n2c(=O)on(C(=O)N(c3ccccc3)C(C)C)c2=O)s1 [Compound 197] .
0

// query: COc1nc(OC)nc(N(C(=O)n2oc(=O)n(-c3c(C)cccc3C)c2=O)C(C)C)n1 [Compound 180]
0

###

# System: corn
# Test Method Notes: Test B pre/postemergence corn
# Format: in vivo, Zea mays
# Experimental Conditions: Preemergence, Rate 250 g/ha
# maps each entry to its Corn plant response rating (0 to 10 scale)
API doc: respond with a numeric literal and nothing else, no unit.

Completed entries (count: 3):
{"Molecule": "COCn1c(=O)on(C(=O)N(c2ccccc2)C(C)C)c1=O [Compound 562]", "System Under Test": "corn", "Value": 9}
{"Molecule": "CCCCn1c(=O)on(C(=O)N(c2ccc(Cl)cc2)C(C)C)c1=O [Compound 527]", "System Under Test": "corn", "Value": 0}
{"Molecule": "COC(=O)CCCn1c(=O)on(C(=O)N(c2ccc(Cl)cc2)C(C)C)c1=O [Compound 543]", "System Under Test": "corn", "Value": 0}

Give recorded Corn plant response rating (0 to 10 scale) with corn for the following molecule: CCCCCCn1c(=O)on(C(=O)N(c2ccccc2)C(C)C)c1=O [Compound 558]
0

###

Quick reference: Blackgrass plant response rating of the listed items.
# Tested on: blackgrass
# Test Method Notes: Test B pre/postemergence blackgrass
# Type: in vivo, Alopecurus myosuroides
# Experimental Conditions: Rate 500 g/ha, Preemergence; scale 0 to 10 (0 no effect, 10 complete control)

// below: answered compounds
{"Compound": "CCOP(=O)(Cn1c(=O)on(C(=O)N(c2ccc(F)cc2F)C(C)C)c1=O)OCC", "Blackgrass plant response rating": 9}
{"Compound": "CC(C)N(C(=O)n1oc(=O)n(CC2=NOCCO2)c1=O)c1ccc(F)cc1", "Blackgrass plant response rating": 9}
{"Compound": "COc1ccc(N(C(=O)n2oc(=O)n(C(C)C)c2=O)C(C)C)cc1", "Blackgrass plant response rating": 9}

Query (compound): "CC(C)N(C(=O)n1oc(=O)n(CC(F)F)c1=O)c1ccc(Cl)cc1" ; field requested: Blackgrass plant response rating
9

What about "CC(C)N(C(=O)n1oc(=O)n(CC2=NOCCO2)c1=O)c1ccc(F)cc1F" ?
9

Now consider CC(C)N(C(=O)n1oc(=O)n(C(C)C(=S)N(C)C)c1=O)c1ccc(Cl)cc1 (stereo not drawn) .
10

###

Recorded B. signalgrass plant response rating values for a group of compounds are listed next.
# Test system: surinam grass
# Test Method Notes: Test B pre/postemergence surinam grass
# Assay type: in vivo, Brachiaria decumbens
# Experimental Conditions: Postemergence, Rate 125 g/ha; scale of 0 to 10 where 0 is no effect and 10 is complete control
Would you mind answering with just the numeric figure?

Examples with answers:
{"Compound": "CN(C(=O)n1oc(=O)n(Cc2ccccc2)c1=O)c1ccccc1 [Compound 153]", "Value": 0}
{"Compound": "CC(C)N(C(=O)n1oc(=O)n(C(C)c2ccccc2)c1=O)c1ccc(Cl)cc1 (centres unmarked) [Compound 133]", "Value": 0}
{"Compound": "CCOC(=O)CC(C(=O)OCC)n1c(=O)on(C(=O)N(c2ccc(Cl)cc2)C(C)C)c1=O (centres unmarked) [Compound 681]", "Value": 0}
{"Compound": "CC(C)N(C(=O)n1oc(=O)n(C)c1=O)c1ccc(Cl)cc1 [Compound 137]", "Value": 4}

API: the following record is the query input.
Given the compound CC(C)N(C(=O)n1oc(=O)n(C(C)(C)C)c1=O)c1ccccc1 [Compound 129] , what is its reported B. signalgrass plant response rating?
0

###

Measured Soybean plant response rating (0 to 10 scale), listed per entry.
# Test system: soybean
# Test Method Notes: Test B pre/postemergence soybean
# Type: in vivo, Glycine max
# Experimental Conditions: Preemergence, Rate 250 g/ha

{"Mol": "CCCCCCn1c(=O)on(C(=O)N(c2ccccc2)C(C)C)c1=O", "Value": 0}

Could you now look at the following compound, please?
Would you kindly share the measured Soybean plant response rating (0 to 10 scale) for "COCn1c(=O)on(C(=O)N(c2ccccc2)C(C)C)c1=O" ?
9
